Tested System: HLA A2.1 molecule (human)
Test Details: T2 cells, flow cytometry; P1Y variant against its natural peptide
Readout Kind: RA WT/RA Y1
Form: value (number only, do not type unit).

Look over these answered cases.
# Binder, RA WT/RA Y1
measured = [
    ("YLVSEFSRM (modifications not checked) [P1Y variant of HER-2/neu 971]", 11.6),
    ("YLYRYGSFSV (modifications not checked) [gp100 476Y1]", 4.2),
    ("YLDGTATLRL (modifications not checked) [gp100 457Y1]", 2.3),
    ("YLMPYGCLL (modifications not checked) [P1Y variant of HER-2/neu 799]", 3.9),
    ("YLCRWGLLL (modifications not checked) [HER-2/neu 5Y1]", 1.1),
    ("YLIHHNTHL (modifications not checked) [HER-2/neu 466Y1]", 3.3),
]

Attention now turns to another entry.
For this binder ( YLEEITGYL (modifications not checked) [HER-2/neu 402Y1] ), measured RA WT/RA Y1 is 5.2
